Data provenance: PubChem BioAssay (NCATS)

ASSAY PROTOCOL: Quantitative High-Throughput drug screen in 47 multiple myeloma cell lines against the NCATS MIPE library collection: KMS28PE_JCRB cell viability assay (AID 1918983); note: nearly all actives have a fitted effect of over 35% in size
TEST CONDITIONS: KMS28PE multiple myeloma viability, CellTiter-Glo ATP, 48 h; series mostly up to 45.8 µM
Results filed as inconclusive are left out. Calls of active or inactive are those of the source. Calls come from the whole dose curve; as a rule, active = well fitted cell-killing curve with a large enough effect; inconclusive = small, poorly fitted or top-dose-only effect, or effect the other way; inactive = no such curve, though single readings can be large or run the other way.
Log the outcome using a class from active, inactive

Identify the outcome logged in this assay for the compound shown: CC(=O)C1=C(O)C=C2Oc3c(C(C)=O)c(O)c(C)c(O)c3C2(C)C1=O (centres undefined)
inactive

Try this compound next: Nc1ccn(C[C@@H](CO)OCP(=O)(O)O)c(=O)n1
inactive

Same lookup for CCOC(=O)[C@H](CCc1ccccc1)N[C@@H](C)C(=O)N1[C@@H](C(=O)O)C[C@H]2CCC[C@@H]21 , please.
active

Next up: O=C(C[C@@H]1CC=CCCC(=O)O[C@H](c2ccccc2)CNC1=O)NCc1ccc(Cl)cc1
inactive

Same read-out for N#CNC(=NCCCCCCOc1ccc(Cl)cc1)Nc1ccncc1 ?
active

Next entry: CCCCCCCCCCCCCCCC(=O)OC[C@@H](NC(=O)C(Cl)Cl)[C@H](O)c1ccc([N+](=O)[O-])cc1
inactive

Also, CCCNC(=O)[C@H]1O[C@H]1C(=O)N[C@H](C(=O)N1CCC[C@@H]1C(=O)OC)C(C)CC (some centres undefined) please.
active

Request: CNC(=O)Nc1ccc(-c2nc(N3CC4CCC(C3)O4)c3cnn(C4CCC5(CC4)OCCO5)c3n2)cc1
active

Item: CC(Oc1ccc(O)cc1)(P(=O)(O)O)P(=O)(O)O
inactive

###

ASSAY PROTOCOL: qHTS of pediatric cancer cell lines to identify multiple opportunities for drug repurposing: Primary screen for NB1643 cells (AID 1347099); note: nearly all actives have a fitted effect of over 50% in size
TEST CONDITIONS: NB1643 neuroblastoma viability, CellTiter-Glo luminescence, 48 h; series mostly up to 46 µM
Method: Drug repurposing or repositioning has been offered as a strategy for drug development in oncology programs. This approach has special potential for childhood cancers and other rare or orphan diseases, where the expected return on new drug development has been a disincentive to pharmaceuticals. […] We employed a titration-based paradigm (quantitative high-throughput screening or qHTS), where all compounds were tested at multiple concentrations for their effect on cell viability. […]
Records with an inconclusive call do not appear. Active and inactive are the calls of the source. Calls come from the whole dose curve; as a rule, active = well fitted cell-killing curve with a large enough effect; inconclusive = small, poorly fitted or top-dose-only effect; inactive = no such curve, though single readings can be large or run the other way.
Pick from active, inactive when you respond.

Could you kindly confirm the outcome this assay logged for COC1=C2C[C@@H](C)C[C@H](OC)[C@@H](O)[C@@H](C)C=C(C)[C@H](OC(N)=O)[C@@H](OC)C=CC=C(C)C(=O)NC(=CC1=O)C2=O ?
active

Input O=C(C[C@@H]1CC=CCCC(=O)O[C@H](c2ccccc2)CNC1=O)NCc1ccc(Cl)cc1
inactive

Proceed to C[C@H]1C[C@H]2[C@@H]3CCC4=CC(=O)C=C[C@]4(C)[C@@H]3C(=O)C[C@]2(C)[C@@]1(O)C(=O)CO
inactive

Entry Cn1cc(C=CC(=O)c2cccc(F)c2)cc1C=CC(=O)NO please
active

Try this molecule too: O=C(NC1CC1)c1cccc(-c2ccc3c(NC(=O)C4CC4)n[nH]c3c2)c1
active

Now try CC[C@H]1OC(=O)[C@H](C)[C@@H](O[C@H]2C[C@@](C)(OC)[C@@H](O)[C@H](C)O2)[C@H](C)[C@@H](O[C@@H]2O[C@@H](C)C[C@H](N(C)C)[C@@H]2O)[C@](C)(O)C[C@@H](C)C(=O)[C@H](C)[C@@H](O)[C@]1(C)O .
inactive

Same for O=C(C=CC=Cc1ccc2c(c1)OCO2)N1CCCCC1
inactive

// repeat for Cc1ncc(-c2ccnc(Nc3ccc(S(C)(=O)=O)cc3)n2)n1C(C)C and report
active

# repeat for CC(C)OC(=O)[C@H](C)N[P@](=O)(OC[C@H]1O[C@@H](n2ccc(=O)[nH]c2=O)[C@](C)(F)[C@H]1O)Oc1ccccc1
inactive

Same lookup for CCCCCCCN(CC)CCCC(O)c1ccc(NS(C)(=O)=O)cc1 (stereo not given) , please.
inactive

Next record, please: CCOC(=O)C=C[C@H](C[C@@H]1CCNC1=O)NC(=O)[C@@H](CC(=O)[C@@H](NC(=O)c1cc(C)on1)C(C)C)Cc1ccc(F)cc1
inactive

Lookup NC(=O)c1ncn([C@@H]2O[C@H](CO)[C@@H](O)[C@@H]2O)c1O
inactive

Next entry: C[C@H]1COc2c(N3CCN(C)CC3)c(F)cc3c(=O)c(C(=O)O)cn1c23
inactive

Now try Cn1cc(-c2ccc3ncc(Cc4ccc5ncccc5c4)n3n2)cn1 .
inactive

Then what about the molecule CC(C)(C)[N+]([O-])=Cc1ccc(S(=O)(=O)O)cc1S(=O)(=O)O ?
inactive

Next molecule up: O=c1[nH]c(=O)n([C@H]2C[C@@H](O)[C@@H](CO)O2)cc1F
active

Similarly, N#CNC(=NCCCCCCOc1ccc(Cl)cc1)Nc1ccncc1 ?
active

And for Cn1cc(C2=C(c3c4n(c5ccccc35)CCC(CN)C4)C(=O)NC2=O)c2ccccc21 (stereo not given) ?
active

Continue with COc1cc(C=CC(=O)CC(=O)C=Cc2ccc(O)c(OC)c2)ccc1O
active

What about this molecule? OCCN1C[C@H](O)[C@@H](O)[C@H](O)[C@@H]1CO
inactive

How about CC(C)(C)[C@H](NC(=O)c1ccc(N)c(Cl)c1)C(=O)N1CCC[C@@H]1C(=O)N[C@H](C#N)CC(=O)O ?
active

Another molecule: CC(=O)O[C@H]1C[C@@H]2CC[C@H]3[C@H]4C[C@H]([N+]5(C)CCCCC5)[C@@H](OC(C)=O)[C@@]4(C)CC[C@@H]3[C@@]2(C)C[C@H]1[N+]1(C)CCCCC1
inactive

Then C[C@H](NCc1ccc2c(c1)nc(NC(=O)c1ccc(-c3cn[nH]c3)s1)n2CCc1ccccc1)C(C)(C)C ?
active

Further, for COc1cc(C)c(C=CC(C)=CC=CC(C)=CC(=O)O)c(C)c1C ?
inactive

Quick one: C=CC1=C(C(=O)O)N2C(=O)[C@@H](NC(=O)C(=NO)c3csc(N)n3)[C@H]2SC1
inactive

How about this molecule: N[C@H]1CN(c2c(F)cc3c(=O)c(C(=O)O)cn(C4C[C@@H]4F)c3c2Cl)CC12CC2 (stereo not given in full)
inactive

Would you mind doing CNC(=O)c1ccc(Nc2cc(Nc3ccccc3S(=O)(=O)C(C)C)c3cc[nH]c3n2)nc1 as well?
active

And then C[C@]12CCC(=O)C=C1[C@@H]1CC1[C@H]1[C@H]3[C@@H]4C[C@H]4[C@@]4(CCC(=O)O4)[C@@]3(C)CC[C@H]12 (stereo not given in full) , what is it?
inactive

Now consider O=C(O)CCCCC(CCSCc1ccccc1)SCc1ccccc1 (stereo not given) and answer again.
active

Again, but for Cn1cc(-c2cnn3c(N)c(Br)c([C@H]4CCCNC4)nc23)cn1
active

Then this molecule: NC(=O)c1cccc(-c2cccc(OC(=O)NC3CCCCC3)c2)c1
inactive

Likewise for O=C(Nc1ccc(Oc2ccnc3[nH]ccc23)c(F)c1)c1cccn(-c2ccc(F)cc2)c1=O ?
inactive

Proceed to OCCNC1CCCc2c1[nH]c1ccc(-c3ccccc3)cc21 (stereo not given)
inactive

Now the molecule NS(=O)(=O)OC[C@@H]1C[C@@H](n2ccc3c(N[C@H]4CCc5ccccc54)ncnc32)C[C@H]1O
active

Then this molecule: CC(C)n1cnc2c(NCCc3ccc(O)cc3)nc(-c3csc4ccccc34)nc21
active
